- assay-comment: Volume of distribution in Wistar Han rat at 0.5 mg/kg, iv or 0.5 mg/kg, po
- Assay type: ADME, organism-based
- cond: in vivo
Measured Vd values are reported for all entries that follow.
Form entry: value (L/kg) — number only.

INSERT INTO assay_data (record_smiles, output_unit, meas_value) VALUES
  ('COc1cccc(F)c1-c1cc2c(cn1)cnn2-c1cccc(N2C[C@@H]3C[C@H]2CN3C)n1', 'L/kg', 0.5);

So what's the measured Vd for this one? `COc1cccc(F)c1-c1cc2c(cn1)cnn2-c1cccc(N2CC3CCC(C2)N3C)n1`
2.3

* * *

- Species: Homo sapiens
- assay-comment: Selectivity ratio of IC50 for JAK1 (unknown origin) by ATP competitive binding assay to IC50 for N-terminal GST-tagged human recombinant HPK1 (1 to 346 residues ) expressed in baculovirus-infected Sf9 cells by HTRF lanthascreen binding assay
parameter: Ratio IC50
Reply with the value as a number alone.

Take a look at these entries with their results.
INSERT INTO assay_data (record_smiles, meas_value) VALUES
  ('CN1CCN(c2cc(-c3n[nH]c4cnc(-c5cnn6c5CCC6)cc34)ccn2)CC1', 45),
  ('COc1cccc(F)c1-c1cc2c(cn1)cnn2-c1cccc(N2CCNCC2)n1', 446),
  ('CNC1CCN(c2cccc(-n3ncc4cnc(-c5c(F)cccc5OC)cc43)n2)CC1', 112),
  ('COc1cccc(F)c1-c1cc2c(cn1)cnn2-c1cccc(N2CCCCC2)n1', 252);

Now examine the next entry.
So what's the measured Ratio IC50 for this one? `COc1cccc(F)c1-c1cc2c(cn1)cnn2-c1cccc(N2C[C@@H]3C[C@H]2CN3C)n1`
5190
